Each entry below carries its recorded EC50 ratio (enhanced the effectiveness of monosodium glutamate).
Molecular target: hT1R1/hT1R3 umami receptor (Homo sapiens, UniProt Q7RTX0+Q7RTX1)
Construct: expressed in transfected cells; host or cells: HEK293 derivative stably expressing Gα15, clone I-17, expression induced with mifepristone
Sequence (Q7RTX1 21-841): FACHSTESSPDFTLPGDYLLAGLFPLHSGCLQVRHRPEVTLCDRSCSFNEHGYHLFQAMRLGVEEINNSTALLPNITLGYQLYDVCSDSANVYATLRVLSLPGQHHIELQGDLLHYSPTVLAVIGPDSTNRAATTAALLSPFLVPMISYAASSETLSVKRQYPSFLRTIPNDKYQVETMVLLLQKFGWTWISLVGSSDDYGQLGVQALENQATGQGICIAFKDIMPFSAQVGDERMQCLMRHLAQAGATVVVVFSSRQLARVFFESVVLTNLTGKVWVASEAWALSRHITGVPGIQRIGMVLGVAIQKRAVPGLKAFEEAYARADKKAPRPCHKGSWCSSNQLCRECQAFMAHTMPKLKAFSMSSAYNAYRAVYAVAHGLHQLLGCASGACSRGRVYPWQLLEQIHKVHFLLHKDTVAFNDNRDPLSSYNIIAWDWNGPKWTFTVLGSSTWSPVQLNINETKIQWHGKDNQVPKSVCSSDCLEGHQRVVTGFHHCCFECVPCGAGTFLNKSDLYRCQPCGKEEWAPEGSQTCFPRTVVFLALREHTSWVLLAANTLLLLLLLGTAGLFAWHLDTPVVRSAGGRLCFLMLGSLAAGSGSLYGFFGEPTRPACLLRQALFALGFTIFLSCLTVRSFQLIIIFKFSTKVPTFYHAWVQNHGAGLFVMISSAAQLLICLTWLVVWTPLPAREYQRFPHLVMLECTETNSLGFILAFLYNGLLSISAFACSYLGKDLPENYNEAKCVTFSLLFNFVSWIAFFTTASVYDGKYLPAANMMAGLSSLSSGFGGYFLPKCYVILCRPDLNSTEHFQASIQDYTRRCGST
Sequence (Q7RTX0 21-852): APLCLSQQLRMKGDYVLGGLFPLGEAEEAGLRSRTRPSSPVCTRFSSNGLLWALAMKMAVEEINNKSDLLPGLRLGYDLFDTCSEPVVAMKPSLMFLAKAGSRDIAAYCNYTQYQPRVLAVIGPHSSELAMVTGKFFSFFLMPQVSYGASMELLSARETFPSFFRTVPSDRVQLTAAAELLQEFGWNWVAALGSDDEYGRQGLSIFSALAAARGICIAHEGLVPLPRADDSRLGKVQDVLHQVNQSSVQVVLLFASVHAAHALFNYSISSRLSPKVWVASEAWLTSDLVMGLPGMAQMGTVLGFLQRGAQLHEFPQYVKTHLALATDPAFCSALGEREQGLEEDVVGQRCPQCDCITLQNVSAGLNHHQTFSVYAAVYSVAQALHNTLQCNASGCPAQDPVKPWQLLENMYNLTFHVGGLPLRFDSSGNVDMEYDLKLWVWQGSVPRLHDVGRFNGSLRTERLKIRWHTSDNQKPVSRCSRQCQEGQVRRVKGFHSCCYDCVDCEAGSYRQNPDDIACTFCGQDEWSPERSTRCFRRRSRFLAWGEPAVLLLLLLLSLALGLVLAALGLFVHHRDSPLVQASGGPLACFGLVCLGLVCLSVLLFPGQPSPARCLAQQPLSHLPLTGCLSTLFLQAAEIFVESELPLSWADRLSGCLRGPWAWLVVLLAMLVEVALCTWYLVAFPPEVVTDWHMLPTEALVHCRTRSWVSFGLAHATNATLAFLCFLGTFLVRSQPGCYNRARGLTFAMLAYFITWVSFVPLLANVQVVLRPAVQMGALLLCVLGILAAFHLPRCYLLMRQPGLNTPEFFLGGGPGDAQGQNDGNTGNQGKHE
Assay: Umami taste enhancement activity assay (EC50 ratio vs. MSG)
Assay type: cell-based
Settings: compound present at 1 μM
Method: A series of measurements of the dose response is run in solutions comprising MSG alone, then a second dose response is run with MSG in combination with predetermined amounts of a candidate compound of Formula (I) at the same time. Typical compound concentrations tested were 30 μM, 10 μM, 3 μM, 1 μM, 0.3 μM, 0.1 μM and 0.03 μM. The relative efficacy of compounds of Formula (I) at enhancing the receptor was determined by calculating the magnitude of a shift in the EC50 for monosodium glutamate. […]
Lab note: jot the number down without any unit.

Prompt line: Tell me reported EC50 ratio (enhanced the effectiveness of monosodium glutamate) for CCOc1ccc(NC(=O)NCCc2ccccn2)cc1 , tested with hT1R1/hT1R3 umami receptor (Homo sapiens, UniProt Q7RTX0+Q7RTX1).
Response line: 4.2
